Where do the numbers come from? From PubChem BioAssay (NCI).

Tested on: NCI-H460 lung
Assay: NCI tumour cell line growth inhibition, 48 h
Kindly state TGI for each of the entries shown.

Check out these entries, answers already filled in.
INSERT INTO measurements (compound, target_entity, property_name, value) VALUES
  ('COc1cc2c3c(c4cc(OC)c(OC)cc4c2cc1OC)C(=O)C1CCC(=O)N1C3 (centres undefined)', 'NCI-H460 lung', 'TGI', '> 100 µM'),
  ('C[C@@H]1C[C@](O)([C@@H](C)Cl)C(=O)O[C@@H]2CCN3CC=C(COC(=O)[C@]1(C)O)[C@H]23', 'NCI-H460 lung', 'TGI', '> 10 µM'),
  ('CN1CCN(CN2C(=O)C3C4C=CC(C3C2=O)C2C(=O)N(CN3CCN(C)CC3)C(=O)C42)CC1 (centres undefined)', 'NCI-H460 lung', 'TGI', '> 93.6 µM'),
  ('COc1cc2c(cc1O)C1C(O)C(O)C=C3CCN(C2)C31 (centres undefined)', 'NCI-H460 lung', 'TGI', '10.1 µM'),
  ('Nc1c(C(=O)Nc2cccc(Br)c2)sc2nc3c(cc12)C(=O)CCC3', 'NCI-H460 lung', 'TGI', '> 100 µM'),
  ('COc1cccc2c1C(=O)c1c(O)c3c(c(O)c1C2=O)CC(O)(/C(C)=N/NC(=O)CCC(=O)N/N=C(\C)C1(O)Cc2c(O)c4c(c(O)c2C(OC2CC(N)C(O)C(C)O2)C1)C(=O)c1c(OC)cccc1C4=O)CC3OC1CC(N)C(O)C(C)O1 (centres undefined)', 'NCI-H460 lung', 'TGI', '0.947 µM'),
  ('O=[N+]([O-])c1cc2c(c3nonc13)OCCCCO2', 'NCI-H460 lung', 'TGI', '14 µM'),
  ('O=C(Nc1cc(Cl)ccc1Cl)c1cc2cccc(Cl)c2oc1=O', 'NCI-H460 lung', 'TGI', '> 100 µM');

Proceed to the following item.
Query block: Consider the compound `Nc1nc(N)c(N=Nc2ccc([As](=O)(O)O)cc2)c(=O)[nH]1` and give its measured TGI.
Result block: > 100 µM

###

System: NCI-H226 lung
Test: NCI tumour cell line growth inhibition, 48 h
Kindly state TGI for each of the entries shown.

Check out these entries, answers already filled in.
INSERT INTO assay_data (molecule, value) VALUES
  ('Cc1cc(C)nc(NS(=O)(=O)c2ccc(NNC(=O)c3cccc4c(=O)c5ccccc5[nH]c34)cc2)n1', '> 100 µM'),
  ('COc1ccc2[nH]cc(-c3nc(-c4c[nH]c5ncccc45)cs3)c2c1', '> 100 µM'),
  ('COc1cc2c(cc1O)C1C(O)C(O)C=C3CCN(C2)C31 (centres undefined)', '7.07 µM');

Below are 6 molecules. Give each one its TGI.
1. COc1ccc(C(=O)/C=C/c2ccncc2)cc1OC
2. Cc1ccc(-c2nc3ccc([N+](=O)[O-])cc3[nH]2)cc1
3. COc1cc(C2c3cc4c(cc3C(O)C(CO)C2CO)OCO4)cc(OC)c1OC (centres undefined)
4. O=C(CC(O)(C(F)(F)F)C(F)(F)F)c1cc(CC(=O)C(O)(C(F)(F)F)C(F)(F)F)cc(CC(=O)C(O)(C(F)(F)F)C(F)(F)F)c1
5. O=C(NCCCN(CCCCN(CCCNC(=O)C(F)(F)F)CCCc1ccccc1)CCCc1ccccc1)C(F)(F)F
6. C[C@@H]1C[C@](O)([C@@H](C)Cl)C(=O)O[C@@H]2CCN3CC=C(COC(=O)[C@]1(C)O)[C@H]23

Result block:
1: 30.6 µM; 2: > 100 µM; 3: > 100 µM; 4: > 6.85 µM; 5: 27 µM; 6: > 100 µM
